System: ACHN renal
Experiment: NCI-60 one-dose screen, 48 h (100 = growth as untreated, 0 = no growth, -100 = all killed)
Details: 10 µM unless noted
Compounds without any hit were thinned out: in the full panel of roughly 83,000, 20% have a hit.
Reported growth values for a set of compounds
Report the value in % with no unit label.

Field: example entries. Status: answers known.
INSERT INTO assay_data (compound, target_or_test_system, observed_result) VALUES
  ('O=C1/C(=C/c2ccc(Cl)cc2)CN(C(=O)C(Cl)Cl)C/C1=C\c1ccc(Cl)cc1', 'ACHN renal', -100),
  ('Cc1ccc(S(=O)(=O)c2nc(-c3ccccc3)oc2SCC(N)=O)cc1', 'ACHN renal', 99.5),
  ('COC(=O)/C(CCC=C(C)C)=C1\[C@@H](OC(C)=O)C[C@@]2(C)[C@H]1C/C(=N/O)[C@H]1[C@@]3(C)CC/C(=N\O)[C@@H](C)[C@@H]3CC[C@@]12C', 'ACHN renal', 102),
  ('COc1c2c(cc3c1C(=O)N[C@@H]1[C@@H](O)[C@@H](O)[C@H](O)C[C@@H]31)OCCO2', 'ACHN renal', 103),
  ('Cc1c(O)cc(-c2cnc(N/N=C/c3ccccc3)s2)c(O)c1C', 'ACHN renal', 99.4),
  ('COc1cc(/C=C/c2cc(/C=C/c3ccc(O)c(OC)c3)n(C(=O)Nc3ccc(Cl)cc3)n2)ccc1O', 'ACHN renal', 9.29),
  ('CN(C)CCn1c(=O)c2ccccc2n2nc3ccccc3c12', 'ACHN renal', 46.6),
  ('C=C(c1ccc(C(=O)O)c(F)c1)c1cc2c(cc1C)C(C)(C)CCC2(C)C', 'ACHN renal', 79),
  ('CCOC(=O)C/C(=N\Nc1cc(=O)[nH]c2ccc(C)cc12)C(=O)OCC', 'ACHN renal', 99),
  ('COCCn1cc(-c2csc(-c3c[nH]c4ccc(F)cc34)n2)c2cccnc21', 'ACHN renal', 41.9);

**Query** Data request, read-out growth, for CC1(C)N=C(N)N=C(N)N1c1ccc(S(=O)(=O)Nc2nccs2)cc1
**Result** 108

**Query** Suppose we examine the compound O=C(C1=Cc2cc3ccccc3n2Cc2cnnn21)c1ccc(F)cc1 ; what growth value has been reported?
**Result** 103

**Query** // query growth value for entry COC1C(O)CC(OC2CC(OC3CC(O[C@@H]4C(=O)c5c(cc6cc(OC7CC(OC8CC(O)C(O)C(C)O8)C(O)C(C)O7)c(C)c(O)c6c5O)CC4[C@H](OC)C(=O)C(C)=O)OC(C)C3O)OC(C)C2O)OC1C (stereo partly drawn)
**Result** 5.29

**Query** What value of measured growth is listed for Cc1nc2sc(C(=O)Nc3ccccn3)c(N)c2cc1C(C)O (stereo not drawn) ?
**Result** 89

**Query** Value lookup for growth; key = O=C(NCCNC(c1ccccc1)C(NCCNC(=O)c1ccccc1)c1ccccc1)c1ccccc1 (stereo not drawn)
**Result** 7.15

**Query** # query: growth of entry Oc1nc(NCc2ccccc2)sc1/C=C1\C=Nc2ncccc21
**Result** 29.2

**Query** Need growth, item CC(C)(C)CC(C)(C)Nc1c(-c2c(O)c3ccccc3oc2=O)nc2sc3ccccc3n12
**Result** 33.7

**Query** Fill in the blank: the reported growth of CCCC(O)Cn1ncc(C(=O)OCC)c1NC(=O)NCc1cccc(C(F)(F)F)c1 (stereo not drawn) is ____.
**Result** 97.7

meta.source: PubChem BioAssay (NCI)
